# System: A2780
# method.description: Antiproliferative activity against human A2780 cells
# Format: functional, cell-based
endpoint: pIC50
# pIC50: negative log10 of molar concentration; output just the value

For Cc1ccc2c(c1C)CN(C(=O)c1ccccc1)CC2c1ccccc1 (stereo not drawn) , what is its reported pIC50?
5.11

Try Cc1ccc2c(c1C)CN(CCCN)CC2c1ccccc1 (stereo not drawn) next.
5.62

Try Cc1ccc2c(c1C)CN(C(=O)N(C)C)CC2c1ccccc1 (stereo not drawn) next.
5.92

----------
# Tested on: CCRF-CEM
# method.description: Antiproliferative activity against human CCRF-CEM cells
# Type: functional, cell-based
endpoint: IC50 (nM)
Write the answer as a number in nM, unit excluded.

For Cc1ccc2c(c1C)CN(C(=O)N(C)C)C[C@@H]2c1cccc(O)c1 , what is its reported IC50?
282

----------
For each entry below, report its pIC50 value.
# target.or.test.system: Kinesin-like protein KIF11 (Homo sapiens, UniProt P52732)
# method.description: Inhibition of Eg5 by ATPase assay
# pIC50: negative log10 of molar concentration; output just the value

Kindly state the measured pIC50 obtained for Cc1ccc2c(c1C)CN(C)CC2c1ccccc1 (stereo unspecified) with Kinesin-like protein KIF11 (Homo sapiens, UniProt P52732).
4.74

Try COc1cccc2c1CN(C(=O)N(C)C)CC2c1cccc(O)c1 (stereo unspecified) next.
5.75

Try Cc1ccc2c(c1C)CN(C(C)C)CC2c1ccccc1 (stereo unspecified) next.
4.96

Try CN(C)C(=O)N1Cc2c(ccc(Cl)c2Cl)C(c2cccc(O)c2)C1 (stereo unspecified) next.
5.90

Try Cc1ccc2c(c1C)CN(C(=O)N(C)C)CC2c1cccc(C(F)(F)F)c1 (stereo unspecified) next.
4.88

----------
# System: A2780
# method.description: Antiproliferative activity against human A2780S cells
# Format: functional, cell-based
endpoint: IC50 (µM)
Write the answer as a number in µM, unit excluded.

For Cc1ccc2c(c1C)CN(C(=O)N(C)C)C[C@@H]2c1cccc(O)c1 , what is its reported IC50?
0.267

----------
# target.or.test.system: Kinesin-like protein KIF11 (Homo sapiens, UniProt P52732)
# Sequence (P52732 whole entry): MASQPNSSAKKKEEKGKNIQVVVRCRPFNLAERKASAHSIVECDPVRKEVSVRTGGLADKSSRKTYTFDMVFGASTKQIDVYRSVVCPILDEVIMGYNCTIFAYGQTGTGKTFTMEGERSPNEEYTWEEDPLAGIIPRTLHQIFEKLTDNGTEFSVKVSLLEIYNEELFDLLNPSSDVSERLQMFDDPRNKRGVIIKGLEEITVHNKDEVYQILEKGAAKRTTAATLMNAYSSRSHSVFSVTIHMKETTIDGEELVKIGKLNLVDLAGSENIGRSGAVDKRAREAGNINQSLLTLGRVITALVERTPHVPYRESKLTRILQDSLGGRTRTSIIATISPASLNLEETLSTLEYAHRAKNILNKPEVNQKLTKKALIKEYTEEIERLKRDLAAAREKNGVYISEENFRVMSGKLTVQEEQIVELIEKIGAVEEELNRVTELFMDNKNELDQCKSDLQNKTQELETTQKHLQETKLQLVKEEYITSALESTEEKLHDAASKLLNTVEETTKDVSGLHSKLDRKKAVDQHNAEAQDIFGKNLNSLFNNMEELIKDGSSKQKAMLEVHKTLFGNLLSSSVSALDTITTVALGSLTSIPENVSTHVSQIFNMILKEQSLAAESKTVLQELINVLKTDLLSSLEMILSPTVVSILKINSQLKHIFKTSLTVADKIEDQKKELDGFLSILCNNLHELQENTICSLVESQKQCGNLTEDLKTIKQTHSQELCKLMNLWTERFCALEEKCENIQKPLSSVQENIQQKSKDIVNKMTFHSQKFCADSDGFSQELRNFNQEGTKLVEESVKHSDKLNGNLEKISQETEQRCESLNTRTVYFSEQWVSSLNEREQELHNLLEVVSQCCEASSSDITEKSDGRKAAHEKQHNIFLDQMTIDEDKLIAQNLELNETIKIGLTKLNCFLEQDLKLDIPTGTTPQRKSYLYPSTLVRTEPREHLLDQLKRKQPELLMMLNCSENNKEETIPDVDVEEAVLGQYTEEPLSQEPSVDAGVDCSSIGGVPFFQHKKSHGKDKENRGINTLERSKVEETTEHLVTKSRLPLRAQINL
# method.description: Inhibition of Eg5 by ATPase assay
For each entry below, report its pIC50 value.
# pIC50: negative log10 of molar concentration; output just the value

For Cc1ccc2c(c1C)CN(C(=O)N1CCOCC1)CC2c1ccccc1 (centres undefined) , what is its reported pIC50?
4.65

Try COC(=O)N1Cc2c(ccc(C)c2C)C(c2ccccc2)C1 (centres undefined) next.
4.84

Try Cc1ccc2c(c1C)CN(C(=O)N(C)C)CC2c1cccc(Cl)c1 (centres undefined) next.
5.46

Try COc1ccc2c(c1)CN(C(=O)N(C)C)CC2c1cccc(O)c1 (centres undefined) next.
6.21

Try Cc1ccc2c(c1C)CNCC2c1ccccc1 (centres undefined) next.
5.08

Try Cc1ccc2c(c1C)CN(C(=O)N(C)C)CC2c1cccc(O)c1 (centres undefined) next.
6.51

Try CN(C)C(=O)N1Cc2cc(Cl)ccc2C(c2cccc(O)c2)C1 (centres undefined) next.
5.60

Try Cc1cccc2c1CN(C(=O)N(C)C)CC2c1cccc(O)c1 (centres undefined) next.
5.33

Try Cc1ccc2c(c1C)CN(CCCCN)CC2c1ccccc1 (centres undefined) next.
5.33

Try CN(C)C(=O)N1Cc2cc(I)ccc2C(c2cccc(O)c2)C1 (centres undefined) next.
6.50

Try CN(C)C(=O)N1Cc2cc(Br)ccc2C(c2cccc(O)c2)C1 (centres undefined) next.
6.09

Try Cc1ccc2c(c1C)CN(C(=O)c1ccccc1)CC2c1ccccc1 (centres undefined) next.
4.79

Try CCN1Cc2c(ccc(C)c2C)C(c2ccccc2)C1 (centres undefined) next.
4.60

Try Cc1ccc2c(c1)CN(C(=O)N(C)C)CC2c1cccc(O)c1 (centres undefined) next.
6.23

Try Cc1ccc2c(c1C)CN(C(=O)N1CCCCC1)CC2c1ccccc1 (centres undefined) next.
4.89

Try Cc1ccc2c(c1C)CN(C(=O)N(C)C)CC2c1ccccc1 (centres undefined) next.
5.56
